measured.target: mTOR/GbL/Raptor (mTORC1) (Homo sapiens)
method.summary: mTOR/GbL/Raptor (mTORC1) ELISA assay
measurement.parameters: phosphorylation of 4E-BP1; 0.2 nM mTORC1, 10 μM ATP; read-out: IC50 in this assay (mTORC1 ELISA)
pIC50: −log10 of the molar value.
recorded.metric: pIC50

Worked cases, pIC50 given:
• Cc1ncnc(N2CCOc3ccc(-c4ccc5sc(N)nc5c4)cc3C2)c1Cc1ccc(F)cc1 = ≥ 8.00
• COCCOc1ccc2ncnc(N3CCOc4ccc(-c5ccc6nc(C)[nH]c6c5)cc4C3)c2c1 = ≤ 5.70
• Cc1ncnc(N2CCOc3ccc(-c4cnc(N)nc4)cc3C2)c1Cc1ccc(F)cc1 = ≥ 8.00
• Cc1nc2cc(-c3ccc4c(c3)CN(c3nc(CN(C)C)nc(C)c3Cc3ccc(F)cc3)CCO4)cnc2[nH]1 = ≥ 8.00

Parameter requested: pIC50. Apply to each item below.
1. CC(=O)OCc1nc(C)c(C(C)C)c(N2CCOc3ccc(-c4ccc5nc(C)[nH]c5c4)cc3C2)n1
2. Cn1ccc2cc(-c3ccc4c(c3)CN(c3ccnc5ccccc35)CCO4)cnc21
3. CCNc1nc2ccc(-c3ccc4c(c3)CN(c3ncnc5cc(F)ccc35)CCO4)cc2[nH]1
4. CNC(=O)Nc1ccc(-c2ccc3c(c2)CN(c2nc(C)nc4cc(OC)ccc24)CCO3)cc1

## Output
7.30 to 8.00
6.00 to 6.60
6.60 to 7.30
≤ 5.70

---

Could you please report measured IC50 for the items listed next?
measured.target: mTOR/GbL/Raptor (mTORC1) (Homo sapiens, UniProt P42345)
method.summary: mTOR/GbL/Raptor (mTORC1) ELISA assay
measurement.parameters: phosphorylation of 4E-BP1; 0.2 nM mTORC1, 10 μM ATP; read-out: IC50 in this assay (mTORC1 ELISA)

• c1ccc2c(N3CCOc4ccc(-c5ccc6nc(C7CCCC7)[nH]c6c5)cc4C3)ccnc2c1 = ≥ 2000 nM

Parameter requested: IC50. Apply to each item below.
1. Cc1nc2ccc(-c3ccc4c(c3)CN(c3ncnc(C)c3Cc3ccc(Cl)c(N(C)C)c3)CCO4)cc2[nH]1
2. Cc1ncnc(N2CCOc3ccc(-c4ccc(N)nn4)cc3C2)c1Cc1ccc(F)cc1
3. Cc1c(N2CCOc3ccc(-c4cnc5nc(C6CC6)[nH]c5c4)cc3C2)ncnc1N(C)[C@H](C)c1ccccc1
4. CC[C@H](C)NCc1nc2c(c(N3CCOc4ccc(-c5cnc6nc(C)[nH]c6c5)cc4C3)n1)CC(C)(C)CC2
5. CC[C@@H](C)NCc1nc2c(c(N3CCOc4ccc(-c5cnc6nc(C)[nH]c6c5)cc4C3)n1)CC(C)(C)CC2
6. Nc1nc2ncc(-c3ccc4c(c3)CN(c3ncnc5cc(Cl)c(Br)cc35)CCO4)cc2[nH]1
7. COCCc1c(C)nc(CN(C)C)nc1N1CCOc2ccc(-c3ccc4nc(C)[nH]c4c3)cc2C1
8. Cc1nc2ccc(-c3ccc4c(c3)CN(c3nc(-c5ccccn5)nc5c3CC(C)(C)CC5)CCO4)cc2[nH]1

## Output
1. ≤ 10 nM
2. 50 to 250 nM
3. 250 to 1000 nM
4. ≤ 10 nM
5. 10 to 50 nM
6. 10 to 50 nM
7. 250 to 1000 nM
8. 50 to 250 nM

Parameter requested: IC50. Apply to each item below.
1. CC1(C)CCc2ncnc(N3CCOc4ccc(-c5cnc6[nH]c(C(F)F)nc6c5)cc4C3)c2C1
2. Cc1nc2ccc(-c3ccc4c(c3)CN(c3ccnc(C)c3Cc3cccc(F)c3)CCO4)cc2[nH]1
3. Cc1nc2ncc(-c3ccc4c(c3)CN(c3ncnc5c3CC(C)CC5)CCO4)cc2[nH]1 (stereo not drawn)
4. CC1(C)CCc2ncnc(N3CCOc4ccc(-c5cnc(N)c(S(=O)(=O)NC[C@H]6CCNC6)c5)cc4C3)c2C1
5. c1ccc2c(N3CCOc4ccc(-c5ccc6nc(C7CCCCN7)[nH]c6c5)cc4C3)ccnc2c1 (stereo not drawn)

## Output
["≤ 10 nM", "≤ 10 nM", "≤ 10 nM", "10 to 50 nM", "250 to 1000 nM"]

## Input Entry under review: `CNS(=O)(=O)c1cc(-c2ccc3c(c2)CN(c2ncnc(C)c2Cc2ccc(F)cc2)CCO3)cnc1N` . Reported IC50?
## Output 10 to 50 nM

Source listed as patent US8648066B2.
